Reported values of IC50 for individual entries
molecular target: KDM5A (Homo sapiens, UniProt P29375); construct: Full length KDM5A enzyme was expressed and purified inhouse; made in house; experiment: KDM5 enzyme assay, KDM5A HTRF (Example 463); format: biochemical; details: compounds of Examples 1-432; read-out: Example 463 Assay KDM5A HTRF IC50
Sequence (P29375 whole entry): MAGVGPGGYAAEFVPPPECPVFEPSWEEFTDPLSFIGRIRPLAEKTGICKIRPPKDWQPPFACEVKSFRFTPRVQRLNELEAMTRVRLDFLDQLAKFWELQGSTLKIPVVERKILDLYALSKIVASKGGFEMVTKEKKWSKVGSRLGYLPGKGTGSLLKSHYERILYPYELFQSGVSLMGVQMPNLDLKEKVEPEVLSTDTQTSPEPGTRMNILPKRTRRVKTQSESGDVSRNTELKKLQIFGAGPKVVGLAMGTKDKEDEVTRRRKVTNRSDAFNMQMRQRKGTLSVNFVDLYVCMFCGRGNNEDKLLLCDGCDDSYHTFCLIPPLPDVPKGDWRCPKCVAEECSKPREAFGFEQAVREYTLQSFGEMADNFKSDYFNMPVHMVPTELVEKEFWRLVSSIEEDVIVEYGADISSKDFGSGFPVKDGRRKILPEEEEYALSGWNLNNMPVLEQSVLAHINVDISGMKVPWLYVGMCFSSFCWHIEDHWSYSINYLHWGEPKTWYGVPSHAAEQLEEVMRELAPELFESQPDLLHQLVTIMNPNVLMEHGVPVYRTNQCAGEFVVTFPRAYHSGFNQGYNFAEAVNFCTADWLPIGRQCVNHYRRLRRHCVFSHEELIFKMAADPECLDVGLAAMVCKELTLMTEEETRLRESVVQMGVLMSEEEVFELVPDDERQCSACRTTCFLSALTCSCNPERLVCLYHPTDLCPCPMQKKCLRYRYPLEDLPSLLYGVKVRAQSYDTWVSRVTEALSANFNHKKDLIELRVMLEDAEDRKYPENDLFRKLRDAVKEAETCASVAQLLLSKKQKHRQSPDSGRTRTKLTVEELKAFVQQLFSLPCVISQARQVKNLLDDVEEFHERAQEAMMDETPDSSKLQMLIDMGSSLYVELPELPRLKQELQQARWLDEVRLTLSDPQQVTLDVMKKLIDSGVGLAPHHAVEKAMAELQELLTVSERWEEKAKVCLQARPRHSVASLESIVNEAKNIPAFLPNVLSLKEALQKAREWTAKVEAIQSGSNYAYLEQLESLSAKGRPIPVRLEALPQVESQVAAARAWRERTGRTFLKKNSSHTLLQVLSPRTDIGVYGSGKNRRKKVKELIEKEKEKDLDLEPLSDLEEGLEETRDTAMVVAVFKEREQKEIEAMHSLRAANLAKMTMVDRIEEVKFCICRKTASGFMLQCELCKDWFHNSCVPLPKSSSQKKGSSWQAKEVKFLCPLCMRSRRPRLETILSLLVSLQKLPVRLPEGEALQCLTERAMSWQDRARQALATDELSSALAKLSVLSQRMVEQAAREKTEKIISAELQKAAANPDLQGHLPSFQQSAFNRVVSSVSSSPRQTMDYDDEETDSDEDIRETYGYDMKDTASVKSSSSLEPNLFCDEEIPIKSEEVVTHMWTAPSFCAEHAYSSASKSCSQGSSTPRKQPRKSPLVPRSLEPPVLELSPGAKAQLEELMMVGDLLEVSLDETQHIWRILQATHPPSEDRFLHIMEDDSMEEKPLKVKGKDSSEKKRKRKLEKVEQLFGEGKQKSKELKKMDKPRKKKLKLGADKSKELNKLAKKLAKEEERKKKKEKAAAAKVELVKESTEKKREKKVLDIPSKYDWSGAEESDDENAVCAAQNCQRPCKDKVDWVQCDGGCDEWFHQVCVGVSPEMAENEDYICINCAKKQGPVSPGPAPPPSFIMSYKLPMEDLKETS

structure	displayUnit	IC50
Cc1occc1-c1[nH]c2c(C#N)cnn2c(=O)c1C(C)C	nM	17
CCc1c(-c2ncc[nH]2)[nH]c2c(C#N)cnn2c1=O	nM	12
CC(C)c1c(-c2cn(C(C)C)nc2F)[nH]c2c(C#N)cnn2c1=O	nM	22
CC(C)c1c(-c2cccc(OCC3CC3)c2)[nH]c2c(C#N)cnn2c1=O	nM	40
CCc1c(-c2cccc(-c3ccccc3)c2)n(C)c2c(C#N)cnn2c1=O	nM	52
CCCn1c(C)c(CC)c(=O)n2ncc(C#N)c12	nM	1500
CC(=O)N1CC=C(c2[nH]c3c(C#N)cnn3c(=O)c2C(C)C)CC1	nM	78
CC(C)c1c(-c2cc(-c3ccccc3)co2)n(C)c2c(C#N)cnn2c1=O	nM	750
CC(C)c1c(-c2ccc(Nc3ccccc3)cc2)[nH]c2c(C#N)cnn2c1=O	nM	10

###

biological target: KDM5A (Homo sapiens); construct: Full length KDM5A enzyme was expressed and purified inhouse; made in house; test: KDM5 enzyme assay, KDM5A HTRF (Example 463); type: biochemical; details: compounds of Examples 1-432; read-out: Example 463 Assay KDM5A HTRF IC50
pIC50: −log10 of the molar value.
quantity: pIC50

compound	quantity	measured
CC(C)c1c(-c2ccc(C(=O)NC3CCCC3)c(Cl)c2)[nH]c2c(C#N)cnn2c1=O [Example 97]	pIC50	7.42
COC(=O)c1cc(-c2[nH]c3c(C#N)cnn3c(=O)c2C(C)C)cn1C(C)C [Compound 409]	pIC50	7.36
CC(C)c1c(-c2cnn(C(c3ccccc3)c3ccccc3)c2)[nH]c2c(C#N)cnn2c1=O [Example 125]	pIC50	7.52
Cc1[nH]c2c(C#N)cnn2c(=O)c1-c1ccccc1 [Example 217]	pIC50	5.68

###

molecular target: KDM5A (Homo sapiens, UniProt P29375); construct: Full length KDM5A enzyme was expressed and purified inhouse; made in house; experiment: KDM5 enzyme assay, KDM5A HTRF (Example 463); assay type: biochemical; details: compounds of Examples 1-432; read-out: Example 463 Assay KDM5A HTRF IC50

structure	IC50 / nM
CC(C)c1c(-c2ccc(S(=O)(=O)N3CCOCC3)cc2)[nH]c2c(C#N)cnn2c1=O	54
CC(C)c1c(-c2ccsc2)[nH]c2c(C#N)cnn2c1=O	12
CC(C)c1c(-c2cc(C3CC3)n(C(C)C)n2)[nH]c2c(C#N)cnn2c1=O	150
CC(C)c1c(-c2ccc(C(F)(F)F)c(C(F)(F)F)c2)[nH]c2c(C#N)cnn2c1=O	170
CC(C)c1c(-c2cccc(CCN(C)C)c2)[nH]c2c(C#N)cnn2c1=O	69
CC(C)c1c(C2=CCN(C)CC2)[nH]c2c(C#N)cnn2c1=O	50
COc1ccc(-c2c(C(C)C)c(=O)n3ncc(C#N)c3n2C)cc1	39
C=CCc1c(-c2ccccc2)[nH]c2c(C#N)cnn2c1=O	9
CC(C)c1c(-c2cc(C(F)(F)F)cc(C(F)(F)F)c2)[nH]c2c(C#N)cnn2c1=O	40
